- System: HepG2 cells
- experimental_protocol: Cytotoxicity assessment in vitro (MTT assay)
- Type: cell-based
- applied_conditions: human, 24 h, 10 µM
Each entry gets no (0) if its 1. screening of cytotoxic potential, HepG2 cell line stays under 100, and yes (1) if its 1. screening of cytotoxic potential, HepG2 cell line is 100 or above.

compound	label_value
COc1c2c(cc3c1OCO3)[C@]13C=C[C@H](OC)C[C@H]1N(C2)C[C@H]3OC(=O)c1cccc(C)c1 [28f, 11-O-(3-Methylbenzoyl)ambelline]	no (0)
COc1c2c(cc3c1OCO3)[C@]13C=C[C@H](OC)C[C@H]1N(C2)C[C@H]3OC(=O)c1ccc([N+](=O)[O-])cc1Cl [28s, 11-O-(2-Chloro-4-nitrobenzoyl)ambelline]	no (0)
COc1ccc(C(=O)O[C@@H]2CN3Cc4c(cc5c(c4OC)OCO5)[C@@]24C=C[C@H](OC)C[C@@H]34)cc1OC [28l, 11-O-(3,4-Dimethoxybenzoyl)ambelline]	yes (1)
COc1c2c(cc3c1OCO3)[C@]13C=C[C@H](OC)C[C@H]1[N@](C2)C[C@H]3OC(C)=O [28a, 11-O-Acetylambelline]	yes (1)
CCC(=O)O[C@@H]1CN2Cc3c(cc4c(c3OC)OCO4)[C@@]13C=C[C@H](OC)C[C@@H]23 [28b, 11-O-Propionylambelline]	no (0)

----------
- System: Huh-7 cell line
- experimental_protocol: Huh-7 cell confluency by alamarBlue assay during hepatic-stage test
- Format: cell-based
- applied_conditions: at 10 μM; DMSO = 100; in % (unit assumed)
# label = 1 if CELL CONFLUENCY Ø screening < 90 else -1

compound	label_value
COC1C=CC23c4cc5c(cc4CN(CC2OC(=O)C(C)C)C3C1)OCO5 (stereo not shown) [29b, 11-O-isobutanoylhaemanthamine]	-1
COc1cccc(C(=O)OC2CN3Cc4cc5c(cc4C24C=CC(OC)CC34)OCO5)c1 (stereo not shown) [29f, 11-O-(3-methoxybenzoyl)haemanthamine]	-1
COc1ccc(C(=O)O[C@@H]2CN3Cc4c(cc5c(c4OC)OCO5)[C@@]24C=C[C@H](OC)C[C@@H]34)cc1 [28k, 11-O-(4-Methoxybenzoyl)ambelline]	1
COc1c2c(cc3c1OCO3)[C@]13C=C[C@H](OC)C[C@H]1N(C2)C[C@H]3OC(=O)c1cc(C)cc(C)c1 [28h, 11-O-(3,5-Dimethylbenzoyl)ambelline]	1
COc1cccc(C(=O)O[C@@H]2CN3Cc4c(cc5c(c4OC)OCO5)[C@@]24C=C[C@H](OC)C[C@@H]34)c1 [28j, 11-O-(3-Methoxybenzoyl)ambelline]	1

----------
- Test system: HepG2 cells
- experimental_protocol: Cytotoxicity assessment in vitro (MTT assay)
- Type: cell-based
- applied_conditions: human, 24 h, 10 µM
Some compounds, each annotated with its measured 1. screening of cytotoxic potential, HepG2 cell line.
value_type: 1. screening of cytotoxic potential, HepG2 cell line

compound	target_desc	test_value
COc1c2c(cc3c1OCO3)[C@]13C=C[C@H](OC)C[C@H]1N(C2)C[C@H]3OC(=O)c1ccc([N+](=O)[O-])cc1 [28q, 11-O-(4-Nitrobenzoyl)ambelline]	HepG2 cells	48.34
CCOc1cc(OCC)cc(C(=O)O[C@@H]2CN3Cc4c(cc5c(c4OC)OCO5)[C@@]24C=C[C@H](OC)C[C@@H]34)c1 [28o, 11-O-(3,5-Diethoxybenzoyl)ambelline]	HepG2 cells	65.61
COc1cc(OC)cc(C(=O)O[C@@H]2CN3Cc4c(cc5c(c4OC)OCO5)[C@@]24C=C[C@H](OC)C[C@@H]34)c1 [28m, 11-O-(3,5-Dimethoxybenzoyl)ambelline]	HepG2 cells	83.99

----------
- Test system: hepatic stage of P. berghei
- experimental_protocol: In vitro activity against P. berghei hepatic stages (luciferase-expressing sporozoites in Huh-7 cells, bioluminescence)
- Type: cell-based, Plasmodium berghei
- applied_conditions: Plasmodium berghei, Huh-7, 48 h; at 1 μM; DMSO = 100; read-out: INFECTION Ø screening
value_type: activity at 1 µM (%)

compound	test_value
COc1c2c(cc3c1OCO3)[C@]13C=C[C@H](OC)C[C@H]1[N@](C2)C[C@H]3OC(C)=O [28a, 11-O-Acetylambelline]	79.5
COc1cc(OC)cc(C(=O)O[C@@H]2CN3Cc4c(cc5c(c4OC)OCO5)[C@@]24C=C[C@H](OC)C[C@@H]34)c1 [28m, 11-O-(3,5-Dimethoxybenzoyl)ambelline]	4.97
COC1C=CC23c4cc5c(cc4CN(CC2OC(=O)c2ccc(C)cc2)C3C1)OCO5 (stereo not drawn) [29d, 11-O-(4-methylbenzoyl)haemanthamine]	47.8

----------
Some molecules, each annotated with its measured 2. screening of cytotoxic potential, HepG2 cell line.
- Test system: HepG2 cells
- experimental_protocol: Cytotoxicity assessment in vitro (MTT assay)
- Type: cell-based
- applied_conditions: human, 24 h, 10 µM
value_type: 2. screening of cytotoxic potential, HepG2 cell line

molecule	test_value
COc1c2c(cc3c1OCO3)[C@]13C=C[C@H](OC)C[C@H]1[N@](C2)C[C@H]3OC(C)=O [28a, 11-O-Acetylambelline]	105.26
COc1c2c(cc3c1OCO3)[C@]13C=C[C@H](OC)C[C@H]1N(C2)C[C@H]3OC(=O)c1cccc(C)c1 [28f, 11-O-(3-Methylbenzoyl)ambelline]	74.3
COc1cc(C(=O)O[C@@H]2CN3Cc4c(cc5c(c4OC)OCO5)[C@@]24C=C[C@H](OC)C[C@@H]34)cc(OC)c1OC [28n, 11-O-(3,4,5-Trimethoxybenzoyl)ambelline]	49.89
COc1c2c(cc3c1OCO3)[C@]13C=C[C@H](OC)C[C@H]1N(C2)C[C@H]3OC(=O)c1cccc([N+](=O)[O-])c1 [28p, 11-O-(3-Nitrobenzoyl)ambelline]	72.83
COc1c2c(cc3c1OCO3)[C@]13C=C[C@H](OC)C[C@H]1N(C2)C[C@H]3OC(=O)C(C)C [28c, 11-O-Isobutanoylambelline]	100.15
COc1c2c(cc3c1OCO3)[C@]13C=C[C@H](OC)C[C@H]1N(C2)C[C@H]3OC(=O)c1ccc([N+](=O)[O-])cc1Cl [28s, 11-O-(2-Chloro-4-nitrobenzoyl)ambelline]	46.62
CCCCC(=O)O[C@@H]1CN2Cc3c(cc4c(c3OC)OCO4)[C@@]13C=C[C@H](OC)C[C@@H]23 [28d, 11-O-Pentanoylambelline]	63.13
COc1c2c(cc3c1OCO3)[C@]13C=C[C@H](OC)C[C@H]1N(C2)C[C@H]3OC(=O)c1ccc(C)c([N+](=O)[O-])c1 [28r, 11-O-(4-Methyl-3-nitrobenzoyl)ambelline]	55.1
COc1c2c(cc3c1OCO3)[C@]13C=C[C@H](OC)C[C@H]1N(C2)C[C@H]3OC(=O)c1ccc(Cl)c([N+](=O)[O-])c1 [28t, 11-O-(4-Chloro-3-nitrobenzoyl)ambelline]	17.76
COc1cc(OC)cc(C(=O)O[C@@H]2CN3Cc4c(cc5c(c4OC)OCO5)[C@@]24C=C[C@H](OC)C[C@@H]34)c1 [28m, 11-O-(3,5-Dimethoxybenzoyl)ambelline]	94
COc1c2c(cc3c1OCO3)[C@]13C=C[C@H](OC)C[C@H]1N(C2)C[C@H]3OC(=O)c1ccccc1 [28e, 11-O-Benzoylambelline]	99.24
COc1c2c(cc3c1OCO3)[C@]13C=C[C@H](OC)C[C@H]1N(C2)C[C@H]3OC(=O)c1ccc([N+](=O)[O-])cc1 [28q, 11-O-(4-Nitrobenzoyl)ambelline]	59.99
COc1ccc(C(=O)O[C@@H]2CN3Cc4c(cc5c(c4OC)OCO5)[C@@]24C=C[C@H](OC)C[C@@H]34)cc1OC [28l, 11-O-(3,4-Dimethoxybenzoyl)ambelline]	89.55
COc1ccccc1C(=O)O[C@@H]1CN2Cc3c(cc4c(c3OC)OCO4)[C@@]13C=C[C@H](OC)C[C@@H]23 [28i, 11-O-(2-Methoxybenzoyl)ambelline]	83.85
COc1c2c(cc3c1OCO3)[C@]13C=C[C@H](OC)C[C@H]1N(C2)C[C@H]3OC(=O)c1ccc(C)cc1 [28g, 11-O-(4-Methylbenzoyl)ambelline]	56.25
CCC(=O)O[C@@H]1CN2Cc3c(cc4c(c3OC)OCO4)[C@@]13C=C[C@H](OC)C[C@@H]23 [28b, 11-O-Propionylambelline]	57.25
CCOc1cc(OCC)cc(C(=O)O[C@@H]2CN3Cc4c(cc5c(c4OC)OCO5)[C@@]24C=C[C@H](OC)C[C@@H]34)c1 [28o, 11-O-(3,5-Diethoxybenzoyl)ambelline]	51.07

----------
- Test system: Huh-7 cell line
- experimental_protocol: Huh-7 cell confluency by alamarBlue assay during hepatic-stage test
- Format: cell-based
- applied_conditions: human, 46 h, 1 µM, pH 7
value_type: CELL CONFLUENCY Ø screening

molecule	test_value
COc1c2c(cc3c1OCO3)[C@]13C=C[C@H](OC)C[C@H]1N(C2)C[C@H]3OC(=O)c1ccc(Cl)c([N+](=O)[O-])c1 [28t, 11-O-(4-Chloro-3-nitrobenzoyl)ambelline]	96.94
COc1c2c(cc3c1OCO3)[C@]13C=C[C@H](OC)C[C@H]1N(C2)C[C@H]3OC(=O)c1ccc([N+](=O)[O-])cc1Cl [28s, 11-O-(2-Chloro-4-nitrobenzoyl)ambelline]	95.79
COc1c2c(cc3c1OCO3)[C@]13C=C[C@H](OC)C[C@H]1N(C2)C[C@H]3OC(=O)c1ccc(C)cc1 [28g, 11-O-(4-Methylbenzoyl)ambelline]	89.36
